Assay: Plasma pharmacokinetics of DEBIO1143 in patients (LC-MS/MS)
Assay type: in vivo, human
Settings: human, plasma, oral, 10 mg, day 1, n=1; read-out: T 1/2 (converted)
RECORDED ENDPOINT: half-life (h)

CN[C@@H](C)C(=O)N[C@H]1CN(C(=O)CC(C)C)CC[C@H]2CC[C@@H](C(=O)NC(c3ccccc3)c3ccccc3)N2C1=O :: 2.46

====

Experiment: Plasma pharmacokinetics of DEBIO1143 in patients (LC-MS/MS)
Assay type: in vivo, human
Details: human, plasma, oral, 600 mg, day 5, n=3, median (min–max); read-out: T max
RECORDED ENDPOINT: Tmax (h)

CN[C@@H](C)C(=O)N[C@H]1CN(C(=O)CC(C)C)CC[C@H]2CC[C@@H](C(=O)NC(c3ccccc3)c3ccccc3)N2C1=O :: 1
